Target: T1, biotin-labeled human CD137 fused to human IgG1 Fc fragment (human, biotin-labeled)
T1 construct: also called human CD137-Fc; biotin-human CD137-Fc
T1 sequence (chain, as listed by the source limits assumed): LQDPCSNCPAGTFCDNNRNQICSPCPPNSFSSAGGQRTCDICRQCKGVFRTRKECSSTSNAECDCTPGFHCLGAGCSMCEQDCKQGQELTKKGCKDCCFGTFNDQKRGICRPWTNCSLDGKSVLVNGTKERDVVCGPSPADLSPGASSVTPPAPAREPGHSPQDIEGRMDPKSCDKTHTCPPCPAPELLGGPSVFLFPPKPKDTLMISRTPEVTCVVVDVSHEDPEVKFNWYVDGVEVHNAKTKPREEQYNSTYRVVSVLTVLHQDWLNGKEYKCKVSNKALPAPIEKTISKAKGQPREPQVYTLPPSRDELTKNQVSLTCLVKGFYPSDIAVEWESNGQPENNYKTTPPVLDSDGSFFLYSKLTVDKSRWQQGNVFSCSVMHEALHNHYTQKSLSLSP
Test: bead ELISA; RLU on human CD137-Fc divided by RLU on human Fc
Where S/N ratio human CD137-Fc/Fc equals or exceeds 20, the correct label is 1 (yes); where it does not, the label is 0 (no).

# binder, class
measured = [
    ("DXDU01_3#072 (antibody, human IgG1, V domains shown, IgG: VH joined to human IgG1 CH1-Fc; also called dBBDu122) VH: QVQLVESGGGLVQPGRSLRLSCAASGFTFSNAWMHWVRQAPGKGLEWVAQIKDRSQLYAAYYAPSVKGRFTISRDDSKNSIYLQMNSLKTEDTAVYYCHYVHYASASTVLGAYGVDAWGQGTTVTVSS VL: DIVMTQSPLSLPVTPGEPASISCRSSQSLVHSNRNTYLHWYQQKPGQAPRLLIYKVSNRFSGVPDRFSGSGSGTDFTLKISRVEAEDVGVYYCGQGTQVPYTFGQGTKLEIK", "0 (no)"),
    ("DXDU01_3#094 (antibody, human IgG1, V domains shown, IgG: VH joined to human IgG1 CH1-Fc; also called dBBDu121) VH: QVQLVESGGGLVQPGRSLRLSCAASGFTFSNAWMHWVRQAPGKGLEWVAQIKDKGNAYAAYYAPSVKGRFTISRDDSKNSIYLQMNSLKTEDTAVYYCHYVHYASAAGGLPGFGVDAWGQGTTVTVSS VL: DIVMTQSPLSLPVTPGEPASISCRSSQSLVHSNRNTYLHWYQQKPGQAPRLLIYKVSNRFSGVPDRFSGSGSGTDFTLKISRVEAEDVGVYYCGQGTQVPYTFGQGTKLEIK", "0 (no)"),
    ("DXDU01_3#019 (antibody, human IgG1, V domains shown, IgG: VH joined to human IgG1 CH1-Fc; also called dBBDu125) VH: QVQLVESGGGLVQPGRSLRLSCAASGFTFSIAWMHWVRQAPGKGLEWVAQIKDKVNGYTAYYAESVKGRFTISRDDSKNSIYLQMNSLKTEDTAVYYCRYVHYAAYYDVLGYGGVDAWGQGTTVTVSS VL: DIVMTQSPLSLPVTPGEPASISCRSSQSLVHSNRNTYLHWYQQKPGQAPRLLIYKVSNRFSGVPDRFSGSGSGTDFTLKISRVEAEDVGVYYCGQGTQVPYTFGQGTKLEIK", "1 (yes)"),
    ("DXDU01_3#051 (antibody, human IgG1, V domains shown, IgG: VH joined to human IgG1 CH1-Fc; also called dBBDu127) VH: QVQLVESGGGLVQPGRSLRLSCAASGFTFSNAWMHWVRQAPGKGLEWVAQIKDRGQQYNAYYAPSVKGRFTISRDDSKNSIYLQMNSLKTEDTAVYYCHYVHYASASSVLPGYGVDAWGQGTTVTVSS VL: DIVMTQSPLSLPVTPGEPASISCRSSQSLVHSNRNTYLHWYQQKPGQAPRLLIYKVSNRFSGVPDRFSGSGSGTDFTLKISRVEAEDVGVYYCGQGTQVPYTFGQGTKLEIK", "0 (no)"),
    ("DADU01_3#018 (antibody, human IgG1, V domains shown, IgG: VH joined to human IgG1 CH1-Fc; also called dBBDu123) VH: QVQLVESGGGLVQPGRSLRLSCAASGFTFSNAWMHWVRQAPGKGLEWVAQIKDRANSYNAYYAPSVKGRFTISRDDSKNSIYLQMNSLKTEDTAVYYCHYVHYSAASTLLPSFGVDAWGQGTTVTVSS VL: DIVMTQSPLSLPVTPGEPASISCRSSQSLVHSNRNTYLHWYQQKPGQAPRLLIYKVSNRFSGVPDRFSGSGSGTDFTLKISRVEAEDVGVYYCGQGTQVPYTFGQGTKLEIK", "0 (no)"),
]

Here is the next item to consider.
Incoming: S/N ratio human CD137-Fc/Fc >= 20 for DADU01_3#001 (antibody, human IgG1, V domains shown, IgG: VH joined to human IgG1 CH1-Fc; also called dBBDu_126; dBBDu126) VH: QVQLVESGGGLVQPGRSLRLSCAASGFTFSIAWMHWVRQAPGKGLEWVAQIKDRVNAYEAYYAPSVKGRFTISRDDSKNSIYLQMNSLKTEDTAVYYCRYVHYASYYDLLGYGGVDAWGQGTTVTVSS VL: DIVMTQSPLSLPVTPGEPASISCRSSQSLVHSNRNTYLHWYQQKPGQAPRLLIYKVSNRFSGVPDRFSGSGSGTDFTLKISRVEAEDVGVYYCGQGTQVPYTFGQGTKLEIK ?
Outgoing: 1 (yes)

Entry source: patent US20240270846A1
